- Tested on: 2Sp-muMax20 (muMax20 with two 2,6-bis(methyl)pyridine Cys staples)
- experimental-protocol: PBM 8-mer E-score (E-score (rank enrichment, -0.5 to 0.5)); higher = stronger preferential binding
Whole data set: some 33,000 sequences, median “E-score (rank enrichment, -0.5 to 0.5)” near -0.0043, cut for the highest 2% near 0.24. The entries come from a sample that favours the highest values as a whole.
Class field: derived from PBM 8-mer E-score; ranges bucket 1 (below 0.006), bucket 2 (0.006 to below 0.1), bucket 3 (0.1 or more)

[[record]]
sequence_string = "AAACCCCA"
discrete_label = "bucket 3"

[[record]]
sequence_string = "ACCCTATA"
discrete_label = "bucket 1"

[[record]]
sequence_string = "TCATGTAA"
discrete_label = "bucket 2"

[[record]]
sequence_string = "CTATGGAG"
discrete_label = "bucket 2"

[[record]]
sequence_string = "CATAATTA"
discrete_label = "bucket 3"

[[record]]
sequence_string = "AAAATGAA"
discrete_label = "bucket 3"

[[record]]
sequence_string = "ACCGTGGC"
discrete_label = "bucket 1"

[[record]]
sequence_string = "GAGCTTCC"
discrete_label = "bucket 1"

[[record]]
sequence_string = "AATAATTA"
discrete_label = "bucket 3"

[[record]]
sequence_string = "ACATGTCG"
discrete_label = "bucket 3"

[[record]]
sequence_string = "ATGGATGA"
discrete_label = "bucket 2"

[[record]]
sequence_string = "ACAAGCAC"
discrete_label = "bucket 1"

[[record]]
sequence_string = "ACATGTCC"
discrete_label = "bucket 3"

[[record]]
sequence_string = "CTATGTGC"
discrete_label = "bucket 3"

[[record]]
sequence_string = "ATACTTTA"
discrete_label = "bucket 3"

[[record]]
sequence_string = "GTGGGCGA"
discrete_label = "bucket 3"

[[record]]
sequence_string = "CTACCCAA"
discrete_label = "bucket 2"

[[record]]
sequence_string = "CCAGAGAC"
discrete_label = "bucket 1"

[[record]]
sequence_string = "ACATGTAA"
discrete_label = "bucket 3"

[[record]]
sequence_string = "CCATGTAA"
discrete_label = "bucket 3"

[[record]]
sequence_string = "AGATGTGC"
discrete_label = "bucket 2"

[[record]]
sequence_string = "CAAATGCA"
discrete_label = "bucket 2"

[[record]]
sequence_string = "AGACCCCC"
discrete_label = "bucket 1"

[[record]]
sequence_string = "AACCCCGA"
discrete_label = "bucket 2"

[[record]]
sequence_string = "AACCCAAA"
discrete_label = "bucket 2"

[[record]]
sequence_string = "AGACCCCA"
discrete_label = "bucket 3"

[[record]]
sequence_string = "CGAGTAAC"
discrete_label = "bucket 1"

[[record]]
sequence_string = "CCGGCAGG"
discrete_label = "bucket 1"

[[record]]
sequence_string = "CTATGTAA"
discrete_label = "bucket 1"

[[record]]
sequence_string = "AACCCCCA"
discrete_label = "bucket 1"

[[record]]
sequence_string = "TGACCCCA"
discrete_label = "bucket 3"

[[record]]
sequence_string = "ACCCCCAA"
discrete_label = "bucket 1"

[[record]]
sequence_string = "AAAATGAG"
discrete_label = "bucket 3"

[[record]]
sequence_string = "CGCCCTAC"
discrete_label = "bucket 1"

[[record]]
sequence_string = "AAATGTAC"
discrete_label = "bucket 3"

[[record]]
sequence_string = "CAATGTAC"
discrete_label = "bucket 2"

[[record]]
sequence_string = "CGGCGGAG"
discrete_label = "bucket 1"

[[record]]
sequence_string = "CTAGGACC"
discrete_label = "bucket 1"

[[record]]
sequence_string = "GCAAGCAC"
discrete_label = "bucket 1"

[[record]]
sequence_string = "AAATGTAG"
discrete_label = "bucket 3"

[[record]]
sequence_string = "CTAGGGGC"
discrete_label = "bucket 2"

[[record]]
sequence_string = "GTATGTAA"
discrete_label = "bucket 3"

[[record]]
sequence_string = "AGAAATCT"
discrete_label = "bucket 2"

[[record]]
sequence_string = "CCTAATTA"
discrete_label = "bucket 2"

[[record]]
sequence_string = "ACATGTGG"
discrete_label = "bucket 3"


Every entry's value here was drawn from the supplement of paper PMC12636033.
